Examples of substances with documented Rt, retention time on C-18 RP-HPLC column (indicator of polarity) follow.
- Method summary: Analytical RP-HPLC retention time on C-18 column as indicator of polarity
- Assay type: physicochemical
- Reported conditions: chromatographic, YMC-Pack ODS-A C18 (5 µm, 120 Å) 150 × 4.6 mm; gradient 5% B 2 min, 5%–100% B 20 min; A 0.1% TFA in water, B 0.1% TFA in acetonitrile/water 80/20; 1 mL/min; UV 220 nm
Measured parameter: Rt, retention time on C-18 RP-HPLC column (indicator of polarity)

- Substance: "RQIKIWFQNRRMKWKK [Penetratin, cell-penetrating peptide]"
  Recorded measurement: 10.9
- Substance: "INH-KRLFKKLLFSLRKY [INH–Dhvar4, isoniazid conjugated to the N-terminus of Dhvar4 via glyoxylic acid linker]"
  Recorded measurement: 12.8
- Substance: "KRLFKKLLFSLRKY [Dhvar4, synthetic derivative of Histatin, a salivary histidine-rich cationic AMP]"
  Recorded measurement: 11.8
- Substance: "INH-RAGLQFPVGRVHRLLRK [INH–Buforin II (5–21), isoniazid conjugated to the N-terminus of Buforin II (5–21) via glyoxylic acid linker]"
  Recorded measurement: 11.0
- Substance: "TKPKGTKPKGTKPKGTKPKG [OT20, synthetic oligomer of Tuftsin, cationic carrier peptide]"
  Recorded measurement: 6.7
- Substance: "RAGLQFPVGRVHRLLRK [Buforin II (5–21), antimicrobial peptide isolated from amphibians]"
  Recorded measurement: 10.9
- Substance: "GIGKFLHSAKKFGKAFVGEIMNS [Magainin II, antimicrobial peptide isolated from amphibians]"
  Recorded measurement: 12.8

* * *

- Method summary: Analytical RP-HPLC retention time on C-18 column as indicator of polarity
- Assay type: physicochemical
- Reported conditions: chromatographic, YMC-Pack ODS-A C18 (5 µm, 120 Å) 150 × 4.6 mm; gradient 5% B 2 min, 5%–100% B 20 min; A 0.1% TFA in water, B 0.1% TFA in acetonitrile/water 80/20; 1 mL/min; UV 220 nm
Rt, retention time on C-18 RP-HPLC column (indicator of polarity) values, listed per item
Measured parameter: Rt, retention time on C-18 RP-HPLC column (indicator of polarity)

- Substance: "INH-TKPKGTKPKGTKPKGTKPKG [INH–OT20, isoniazid conjugated to the N-terminus of OT20 via glyoxylic acid linker]"
  Recorded measurement: 7.0
- Substance: "INH-RQIKIWFQNRRMKWKK [INH–Penetratin, isoniazid conjugated to the N-terminus of Penetratin via glyoxylic acid linker]"
  Recorded measurement: 11.5
- Substance: "INH-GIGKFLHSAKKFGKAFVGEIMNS [INH–Magainin II, isoniazid conjugated to the N-terminus of Magainin II via glyoxylic acid linker]"
  Recorded measurement: 13.3
